B1: Peroxisome proliferator-activated receptor delta, residues 71 to 145; numbered along this chain, Q03181 (parent)
chain: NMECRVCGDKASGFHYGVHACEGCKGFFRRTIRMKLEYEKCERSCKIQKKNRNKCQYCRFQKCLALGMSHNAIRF

Variants of: B1
Assay: abundance fitness (aPCA) (normalised: wild type 0, dead -1); higher = more abundant; growth selection in yeast, the domain comes from the species named
Conditions: Homo sapiens
Classification field: enter 1.0 for abundance fitness values not below -0.05, 0.0 for values below it.

See these solved cases before continuing.
Test whether the variant `E3N` records abundance fitness of -0.05 or higher.
0.0

Quick check: does `K54S` have abundance fitness greater than or equal to -0.05?
0.0

For this variant, is measured abundance fitness -0.05 or higher? `L64P`
0.0

Can `K50S` be said to have abundance fitness at or above -0.05?
1.0

Hello, I need to know if `N53C` has measured abundance fitness not below -0.05. Thanks!
0.0

Next:
Could you tell me if the measured abundance fitness of `C24F` reaches -0.05 or more?
0.0

State whether the measured abundance fitness reaches -0.05, counting equality as reaching it, for `K35C`
1.0

Determine whether measured abundance fitness meets or exceeds -0.05 for `C21D`
0.0

Data credit: the Human Domainome abundance scans (Beltran et al. 2025)
